measurement-target: COX II (Homo sapiens)
Construct: made in house; baculovirus-infected insect cells by own knowledge of the cited Barnett et al. 1994
Sequence (P35354 18-604): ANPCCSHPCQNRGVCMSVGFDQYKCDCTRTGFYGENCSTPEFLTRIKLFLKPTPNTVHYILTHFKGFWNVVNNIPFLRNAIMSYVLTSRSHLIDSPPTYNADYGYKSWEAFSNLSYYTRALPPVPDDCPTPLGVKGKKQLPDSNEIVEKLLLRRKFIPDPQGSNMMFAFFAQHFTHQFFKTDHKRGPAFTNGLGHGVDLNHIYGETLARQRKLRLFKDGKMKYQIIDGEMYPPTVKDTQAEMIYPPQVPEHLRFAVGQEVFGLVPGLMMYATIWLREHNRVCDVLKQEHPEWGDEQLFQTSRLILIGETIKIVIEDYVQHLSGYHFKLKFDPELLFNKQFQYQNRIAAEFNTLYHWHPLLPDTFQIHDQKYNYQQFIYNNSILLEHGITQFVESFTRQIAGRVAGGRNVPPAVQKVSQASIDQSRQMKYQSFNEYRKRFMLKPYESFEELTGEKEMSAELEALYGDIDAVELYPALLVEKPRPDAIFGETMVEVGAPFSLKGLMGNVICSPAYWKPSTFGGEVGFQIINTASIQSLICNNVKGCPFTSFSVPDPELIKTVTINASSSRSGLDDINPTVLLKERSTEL
assay-method-text: Inhibition of COX II in vitro (radiometric assay, 14C arachidonic acid, partially purified enzyme)
Assay type: biochemical
applied-conditions: partially purified COX II, 20 micromolar arachidonic acid, 10 min preincubation, room temperature; read-out: COX II IC50
Field: IC50. Provide a value for each of the compounds that follow.
Give your result in nM as a bare value.

### Prompt Tell me the measured IC50 of Cc1cc(Cc2ccc(NS(=O)(=O)CCO)cc2F)n(C)c1C(=O)c1ccccc1 , please.
### Response 330

### Prompt Tell me the measured IC50 of CC(=O)Nc1ccc(Cc2cc(C)c(C(=O)c3ccc(Cl)cc3)n2C)nc1 , please.
### Response 43700

### Prompt Tell me the measured IC50 of Cc1cc(C(C)c2ccc(NS(C)(=O)=O)cc2)n(C)c1C(=O)c1ccc(Cl)cc1 (stereo not shown) , please.
### Response 510

### Prompt Tell me the measured IC50 of COc1ccc(C(=O)c2c(C)cc(Cc3ccc(NS(N)(=O)=O)cc3F)n2C)cc1 , please.
### Response 70

### Prompt Tell me the measured IC50 of Cc1cc(Cc2ccc(N)cc2)n(C)c1C(=O)c1ccc(Cl)cc1 , please.
### Response 27400

### Prompt Tell me the measured IC50 of CCS(=O)(=O)Nc1ccc(Cc2cc(C)c(C(=O)c3ccc(OC)cc3)n2C)c(F)c1 , please.
### Response 38

### Prompt Tell me the measured IC50 of CCNC(=S)Nc1ccc(Cc2cc(C)c(C(=O)c3ccc(Cl)cc3)n2C)nc1 , please.
### Response 560

### Prompt Tell me the measured IC50 of CNS(=O)(=O)Nc1ccc(Cc2ccc(C(=O)c3ccc(C)cc3C)n2C)c(F)c1 , please.
### Response 90

### Prompt Tell me the measured IC50 of COc1ccc(C(=O)c2c(C)cc(Cc3ccc(NS(=O)(=O)CCO)cc3F)n2C)cc1 , please.
### Response 230

### Prompt Tell me the measured IC50 of CSc1ccc(C(=O)c2c(C)cc(Cc3ccc(NS(=O)(=O)N(C)C)cn3)n2C)cc1 , please.
### Response 400

### Prompt Tell me the measured IC50 of CNS(=O)(=O)Nc1ccc(Cc2cc(C)c(C(=O)c3ccc(F)cc3)n2C)c(F)c1 , please.
### Response 240

### Prompt Tell me the measured IC50 of Cc1cc(Cc2ccc(NC(=O)NCCCl)cn2)n(C)c1C(=O)c1ccc(Cl)cc1 , please.
### Response 9200

### Prompt Tell me the measured IC50 of Cc1cc(Cc2c(F)cc(NS(C)(=O)=O)cc2F)n(C)c1C(=O)c1ccc(Cl)cc1 , please.
### Response 63

### Prompt Tell me the measured IC50 of Cc1cc(Cc2ccc(NC(=O)Nc3cccc(Cl)c3)cc2)n(C)c1C(=O)c1ccc(Cl)cc1 , please.
### Response 100

### Prompt Tell me the measured IC50 of Cc1cc(Cc2ccc(NS(C)(=O)=O)cc2F)n(C)c1C(=O)c1cccs1 , please.
### Response 60

### Prompt Tell me the measured IC50 of Cc1cc(Cc2ccc(NS(C)(=O)=O)cc2F)n(C)c1C(=O)c1ccccc1 , please.
### Response 28

### Prompt Tell me the measured IC50 of Cn1c(Cc2ccc(NS(=O)(=O)CCO)cc2F)ccc1C(=O)c1ccccc1 , please.
### Response 120

### Prompt Tell me the measured IC50 of Cc1cc(Cc2ccc(NC=O)cn2)n(C)c1C(=O)c1ccc(Cl)cc1 , please.
### Response 30000

### Prompt Tell me the measured IC50 of Cc1ccc(C(=O)c2ccc(Cc3ccc(NS(C)(=O)=O)cn3)n2C)cc1 , please.
### Response 430

====

measurement-target: COX I (Homo sapiens)
Construct: made in house; baculovirus-infected insect cells by own knowledge of the cited Barnett et al. 1994
assay-method-text: Inhibition of COX I in vitro (radiometric assay, 14C arachidonic acid, partially purified enzyme)
Format: biochemical
applied-conditions: partially purified COX I, 20 micromolar arachidonic acid, 10 min preincubation, room temperature; read-out: COX I IC50
pIC50: −log10 of the molar value.
Mark Not satisfied for pIC50 values under 5, and Satisfied for everything at or above.

### Prompt State whether the measured pIC50 reaches 5, counting equality as reaching it, for COc1ccc(C(=O)c2c(C)cc(Cc3ccc(NS(N)(=O)=O)cc3F)n2C)cc1
### Response Satisfied

### Prompt State whether the measured pIC50 reaches 5, counting equality as reaching it, for COc1ccc(C(=O)c2ccc(Cc3ccc(NS(N)(=O)=O)cn3)n2C)cc1
### Response Not satisfied

### Prompt State whether the measured pIC50 reaches 5, counting equality as reaching it, for Cc1ccc(C(=O)c2ccc(Cc3ccc(NS(C)(=O)=O)cc3Cl)n2C)cc1
### Response Satisfied

### Prompt State whether the measured pIC50 reaches 5, counting equality as reaching it, for CCS(=O)(=O)Nc1ccc(Cc2cc(C)c(C(=O)c3ccccc3)n2C)c(F)c1
### Response Satisfied

### Prompt State whether the measured pIC50 reaches 5, counting equality as reaching it, for NS(=O)(=O)Nc1ccc(C2CCn3c(C(=O)c4ccccc4)ccc32)c(Cl)c1 (stereo not drawn)
### Response Satisfied

### Prompt State whether the measured pIC50 reaches 5, counting equality as reaching it, for COc1ccc(C(=O)c2ccc(Cc3ccc(NS(N)(=O)=O)cc3C#N)n2C)cc1
### Response Satisfied

====

measurement-target: COX II (Homo sapiens)
Construct: made in house; baculovirus-infected insect cells by own knowledge of the cited Barnett et al. 1994
assay-method-text: Inhibition of COX II in vitro (radiometric assay, 14C arachidonic acid, partially purified enzyme)
Assay type: biochemical
applied-conditions: partially purified COX II, 20 micromolar arachidonic acid, 10 min preincubation, room temperature; read-out: COX II IC50
readout-kind: log10(IC50) (log10 of the value in nM)
Lab note - IC50 converted to log10 from values in nM.

### Prompt What log10(IC50) appears in the records for this compound with COX II (Homo sapiens)? Cc1cc(Cc2ccc(NS(=O)(=O)CCO)cn2)n(C)c1C(=O)c1ccc(Cl)cc1 [compound 267]
### Response 2.85

### Prompt What log10(IC50) appears in the records for this compound with COX II (Homo sapiens)? NS(=O)(=O)Nc1ccc(C2CCn3c(C(=O)c4ccccc4)ccc32)c(Cl)c1 (centres unmarked) [compound 222]
### Response 1.87

### Prompt What log10(IC50) appears in the records for this compound with COX II (Homo sapiens)? CCNC(=S)Nc1ccc(Cc2cc(C)c(C(=O)c3ccc(Cl)cc3)n2C)cc1 [compound 235]
### Response 2.23

### Prompt What log10(IC50) appears in the records for this compound with COX II (Homo sapiens)? CSc1ccc(C(=O)c2c(C)cc(Cc3ccc(N)cn3)n2C)cc1 [compound 334]
### Response 2.81

### Prompt What log10(IC50) appears in the records for this compound with COX II (Homo sapiens)? Cc1cc(Cc2ccc(NC(=S)Nc3ccccc3)cn2)n(C)c1C(=O)c1ccc(Cl)cc1 [compound 316]
### Response 2.30

### Prompt What log10(IC50) appears in the records for this compound with COX II (Homo sapiens)? CNC(=S)Nc1ccc(Cc2cc(C)c(C(=O)c3ccc(Cl)cc3)n2C)cc1 [compound 236]
### Response 2.71

### Prompt What log10(IC50) appears in the records for this compound with COX II (Homo sapiens)? Cc1cc(Cc2ccc(NS(N)(=O)=O)cc2)n(C)c1C(=O)c1ccc(Cl)cc1 [compound 141]
### Response 1.48

### Prompt What log10(IC50) appears in the records for this compound with COX II (Homo sapiens)? Cc1cc(Cc2ccc(NS(=O)(=O)CCO)cc2F)n(C)c1C(=O)c1ccc(F)cc1 [compound 104]
### Response 2.38

### Prompt What log10(IC50) appears in the records for this compound with COX II (Homo sapiens)? CS(=O)(=O)Nc1ccc(C2CCn3c(C(=O)c4ccccc4)ccc32)c(Cl)c1 (centres unmarked) [compound 131]
### Response 1.89

### Prompt What log10(IC50) appears in the records for this compound with COX II (Homo sapiens)? Cc1ccc(C(=O)c2ccc(Cc3ncc(NS(C)(=O)=O)cc3Cl)n2C)cc1 [compound 276]
### Response 2.70

### Prompt What log10(IC50) appears in the records for this compound with COX II (Homo sapiens)? COc1ccc(C(=O)c2c(C)cc(Cc3ccc(NS(C)(=O)=O)cn3)n2C)cc1 [compound 289]
### Response 3.18

====

Field: pIC50. Provide a value for each of the compounds that follow.
measurement-target: COX I (Homo sapiens, UniProt P23219)
Construct: made in house; baculovirus-infected insect cells by own knowledge of the cited Barnett et al. 1994
Sequence (P23219 24-599): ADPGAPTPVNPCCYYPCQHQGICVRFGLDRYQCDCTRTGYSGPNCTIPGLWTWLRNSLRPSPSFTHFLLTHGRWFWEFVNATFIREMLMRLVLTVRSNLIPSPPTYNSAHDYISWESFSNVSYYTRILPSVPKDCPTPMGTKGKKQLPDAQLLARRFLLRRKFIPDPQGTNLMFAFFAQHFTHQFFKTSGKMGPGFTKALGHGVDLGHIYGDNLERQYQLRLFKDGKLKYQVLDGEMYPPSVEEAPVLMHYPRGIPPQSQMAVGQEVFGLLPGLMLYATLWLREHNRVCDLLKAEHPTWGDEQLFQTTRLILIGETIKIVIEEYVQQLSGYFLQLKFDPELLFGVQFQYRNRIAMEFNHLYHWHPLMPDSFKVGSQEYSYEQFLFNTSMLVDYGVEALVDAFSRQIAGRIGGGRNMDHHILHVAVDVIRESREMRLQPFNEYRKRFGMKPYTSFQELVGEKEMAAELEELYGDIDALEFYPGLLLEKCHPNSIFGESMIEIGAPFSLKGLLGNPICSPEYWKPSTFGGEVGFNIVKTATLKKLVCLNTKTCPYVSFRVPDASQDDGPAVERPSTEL
assay-method-text: Inhibition of COX I in vitro (radiometric assay, 14C arachidonic acid, partially purified enzyme)
Type: biochemical
applied-conditions: partially purified COX I, 20 micromolar arachidonic acid, 10 min preincubation, room temperature; read-out: COX I IC50
Scale note: pIC50 = -log10(concentration in M).

### Prompt Tell me the measured pIC50 of CNS(=O)(=O)Nc1ccc(Cc2cc(C)c(C(=O)c3ccc(F)cc3)n2C)c(F)c1 , please.
### Response 6.34

### Prompt Tell me the measured pIC50 of Cc1cc(Cc2ccc(NC(=O)Nc3ccccc3)cc2)n(C)c1C(=O)c1ccc(Cl)cc1 , please.
### Response 5.60

### Prompt Tell me the measured pIC50 of Cc1ccc(C(=O)c2ccc(Cc3ncc(NS(C)(=O)=O)cc3Cl)n2C)cc1 , please.
### Response 4.22
